Assay: self-splicing fitness, log relative to wild type (ln ratio); higher = more splicing; Tetrahymena group I intron in knt gene, E. coli kanamycin selection, DiMSum; sequences stand for … in CUCUCU…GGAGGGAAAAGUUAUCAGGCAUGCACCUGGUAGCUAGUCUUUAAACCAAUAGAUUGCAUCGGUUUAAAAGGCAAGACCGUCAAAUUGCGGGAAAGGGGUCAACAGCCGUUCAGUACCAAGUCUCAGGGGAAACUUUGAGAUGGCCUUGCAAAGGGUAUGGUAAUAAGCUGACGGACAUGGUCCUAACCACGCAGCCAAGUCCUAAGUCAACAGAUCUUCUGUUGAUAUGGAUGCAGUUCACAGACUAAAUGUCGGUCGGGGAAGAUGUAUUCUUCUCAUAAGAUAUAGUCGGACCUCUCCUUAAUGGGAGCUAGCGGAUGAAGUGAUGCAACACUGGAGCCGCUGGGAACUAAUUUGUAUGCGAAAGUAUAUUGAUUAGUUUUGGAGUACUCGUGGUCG;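 further: selection with 25 µg/mL kanamycin versus none on LB agar overnight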
Conditions: 30 °C
observable: self-splicing fitness (ln)

- ACUAAGCAAUAUUACGAUCC: -1.02
- ACGCAGCAAUAUUACGGGAG: -2.73
- UCUCAGCAAUAUUACGCACU: -0.801
- CAUCAGCAAUAUUACGUAGC: -3.39
- CGCCAGCAAUAUUACGUAGG: -2.47
- CCGGAGCAAUAUUACGUUGU: -2.59
- AAUGAGCAAUAUUACGACUC: -1.05
- UAUUAGCAAUAUUACGACGG: -0.886
- UUCGAGCAAUAUUACGGGCC: -3.79
- GCCCAGCAAUAUUACGGCGU: -1.12
- AGUUAGCAAUAUUACGCAGU: -2.38
- GAUCAGCAAUAUUACGAUCA: -0.53
- GGAAAGCAAUAUUACGGGUU: -2.99
- GAGGAGCAAUAUUACGGGAC: -2.42
- ACGGAGCAAUAUUACGACAC: -4.35
- CACCAGCAAUAUUACGUUAG: -0.512
- ACAUAGCAAUAUUACGUUAA: -3.09
- AAGAAGCAAUAUUACGAGUU: -1.15
- AUCGAGCAAUAUUACGCGAA: -1.68
- CUUCAGCAAUAUUACGUGCG: -2.43
- CAGGAGCAAUAUUACGAUAU: -1.88
- AGUGAGCAAUAUUACGAAGG: -3.45
- CCGUAGCAAUAUUACGGUUU: -2.85
- GUACAGCAAUAUUACGUAGU: -2.84
- GAGAAGCAAUAUUACGGGCU: -2.57
- GAGUAGCAAUAUUACGGGUG: -2.78
- AGUCAGCAAUAUUACGGACA: 0.233
- GUAUAGCAAUAUUACGGUCA: -1.5
- GAUUAGCAAUAUUACGGCAC: -0.128
- GUAGAGCAAUAUUACGAUGA: -1.5
- UCAGAGCAAUAUUACGCAAC: -3.8
- UUUAAGCAAUAUUACGUGUC: -3.99
- CCUCAGCAAUAUUACGGCGA: -3.72
- GCGAAGCAAUAUUACGUUAU: -2.2
- UGAAAGCAAUAUUACGUACU: -0.121
- UAUAAGCAAUAUUACGAUCG: -0.0932
- UUCCAGCAAUAUUACGCCGA: -0.126
- CUUUAGCAAUAUUACGGAGG: -1.75
- UGUCAGCAAUAUUACGUUGA: -3.77
- GGUUAGCAAUAUUACGUCGC: -1.25
- UGACAGCAAUAUUACGACAA: -0.197
- AUCGAGCAAUAUUACGCGAU: -2.06
- GCACAGCAAUAUUACGUAUG: -2.21
- UGCGAGCAAUAUUACGAACG: -1.07
- GUAUAGCAAUAUUACGAGAC: -1.38
- ACCUAGCAAUAUUACGCGAG: -3.54
- ACCUAGCAAUAUUACGAUCU: -0.35
- GUCCAGCAAUAUUACGGCUA: -0.25
- GACGAGCAAUAUUACGUCUU: -2.63
- AACUAGCAAUAUUACGGUCC: -0.628
- UCAAAGCAAUAUUACGUAUG: -2.44
- AGGCAGCAAUAUUACGGGCG: -0.287
- UAGGAGCAAUAUUACGGGCU: -3.12
- AUAAAGCAAUAUUACGGUAA: -1.21
